The following compounds are listed with their measured MIC values.
# System: Haemophilus influenzae R252
# method-notes: standard agar-dilution assay (MIC)
# Assay type: cell-based
# recorded-conditions: Haemophilus influenzae R252, ampicillin-resistant strain, unit assumed
measured-property: MIC (µg/mL)

1. CCC(=O)OCC1C=C(C)C=CC(=O)C(C)CC(CC=O)C(OC2OC(C)C(OC3CC(C)(O)C(O)C(C)O3)C(N(C)C)C2OC(C)=O)C(C)C(O)CC(=O)OC1CC (stereo not drawn) [Compound 5, 2'-O-Acetyl-23-O-propionyl DMT] = 32
2. CCC1OC(=O)CC(O)C(C)C(OC2OC(C)C(OC3CC(C)(O)C(O)C(C)O3)C(N(C)C)C2OC(C)=O)C(CC=O)CC(C)C(=O)C=CC(C)=CC1COC(=O)OC (stereo not drawn) [Compound 24] = 8
3. CCC1OC(=O)CC(O)C(C)C(OC2OC(C)C(OC3CC(C)(O)C(O)C(C)O3)C(N(C)C)C2OC(C)=O)C(CC=O)CC(C)C(=O)C=CC(C)=CC1COC(=O)Cc1ccc([N+](=O)[O-])cc1 (stereo not drawn) [Compound 15] = 4

###

Lab note: MIC readings collected with Staphylococcus epidermidis EPI1 for the following compounds.
measured-property: MIC (µg/mL)

1) CCC1OC(=O)CC(O)C(C)C(OC2OC(C)C(OC3CC(C)(O)C(O)C(C)O3)C(N(C)C)C2O)C(CC=O)CC(C)C(=O)C=CC(C)=CC1COC(=O)Cc1ccccc1 (stereo not shown) [Compound 10, 23-O-Phenylacetyl-DMT] = 0.5
2) CCC1OC(=O)CC(O)C(C)C(OC2OC(C)C(OC3CC(C)(O)C(O)C(C)O3)C(N(C)C)C2OC(C)=O)C(CC=O)CC(C)C(=O)C=CC(C)=CC1COC(=O)NCc1ccccc1 (stereo not shown) [Compound 30] = 0.5
3) CCC1OC(=O)CC(O)C(C)C(OC2OC(C)C(OC3CC(C)(O)C(O)C(C)O3)C(N(C)C)C2OC(C)=O)C(CC=O)CC(C)C(=O)C=CC(C)=CC1COC(=O)Cc1ccccc1 (stereo not shown) [Compound 9, 2'-O-Acetyl-23-O-phenylacetyl-DMT] = 0.5
4) CCC1OC(=O)CC(O)C(C)C(OC2OC(C)C(OC3CC(C)(O)C(O)C(C)O3)C(N(C)C)C2OC(C)=O)C(CC=O)CC(C)C(=O)C=CC(C)=CC1COC(=O)C12CC3CC(CC(C3)C1)C2 (stereo not shown) [Compound 23] = 2
5) CCCCCCCC(=O)OCC1C=C(C)C=CC(=O)C(C)CC(CC=O)C(OC2OC(C)C(OC3CC(C)(O)C(O)C(C)O3)C(N(C)C)C2OC(C)=O)C(C)C(O)CC(=O)OC1CC (stereo not shown) [Compound 7] = 2
6) CCC1OC(=O)CC(O)C(C)C(OC2OC(C)C(OC3CC(C)(O)C(O)C(C)O3)C(N(C)C)C2O)C(CC=O)CC(C)C(=O)C=CC(C)=CC1COC(=O)NCCCO (stereo not shown) [Compound 26] = 1
7) CCC1OC(=O)CC(O)C(C)C(OC2OC(C)C(OC3CC(C)(O)C(O)C(C)O3)C(N(C)C)C2OC(C)=O)C(CC=O)CC(C)C(=O)C=CC(C)=CC1COC(C)=O (stereo not shown) [Compound 1, 2',23-Di-O-Acetyl-DMT] = 2
8) CCC1OC(=O)CC(O)C(C)C(OC2OC(C)C(OC3CC(C)(O)C(O)C(C)O3)C(N(C)C)C2OC(C)=O)C(CC=O)CC(C)C(=O)C=CC(C)=CC1COC(=O)CCCCc1ccccc1 (stereo not shown) [Compound 18] = 1
9) CCC1OC(=O)CC(O)C(C)C(OC2OC(C)C(OC3CC(C)(O)C(O)C(C)O3)C(N(C)C)C2OC(C)=O)C(CC=O)CC(C)C(=O)C=CC(C)=CC1COC(=O)COc1ccccc1 (stereo not shown) [Compound 12, 2'-O-Acetyl-23-O-phenoxyacetyl-DMT] = 0.5
10) CCC1OC(=O)CC(O)C(C)C(OC2OC(C)C(OC3CC(C)(O)C(O)C(C)O3)C(N(C)C)C2OC(C)=O)C(CC=O)CC(C)C(=O)C=CC(C)=CC1COC(=O)Cc1cc(OC)ccc1OC (stereo not shown) [Compound 20] = 0.5
